# method summary: Pharmacokinetic study in rats
# Type: in vivo, SD rats
# applied conditions: male, SD, rat, plasma, po, 5 mg/kg p.o
# maps each entry to its Cmax
Output spec: scalar in ng/mL, unitless text.

N[C@@H]1CCCc2cccc(Cn3c(=S)[nH]c(=O)c4[nH]ccc43)c21 (single isomer, unassigned); 500

Let's switch to this compound now.
Challenge: May I ask what Cmax has been recorded for N[C@@H]1CCOc2cccc(Cn3c(=S)[nH]c(=O)c4[nH]ccc43)c21 (single isomer, unassigned) ?
Response given: 1700

* * *

# method summary: Pharmacokinetic study in rats
# Format: in vivo, SD rats
# applied conditions: male, SD, rat, plasma, iv, 1 mg/kg i.v
assay metric: clearance (mL/min/kg)
Output spec: scalar in mL/min/kg, unitless text.

In the examples that follow, each entry is paired with its recorded clearance.
NC1CCOc2cccc(Cn3c(=S)[nH]c(=O)c4[nH]ccc43)c21 (stereo not drawn); 19.9
N[C@@H]1CCOc2cccc(Cn3c(=S)[nH]c(=O)c4[nH]ccc43)c21 (single isomer, unassigned); 13

Let's switch to this compound now.
Challenge: May I ask what clearance has been recorded for N[C@@H]1CCCc2cccc(Cn3c(=S)[nH]c(=O)c4[nH]ccc43)c21 (single isomer, unassigned) ?
Response given: 52.7
